Assay Name: in vitro
Assay type: cell-based
Experimental Setup: human, Cytotoxicity IC50 HEK293
Result Type: IC50
Give the number first and the unit second.

Reported IC50, compound O=C1C(=Cc2cccc(C(F)(F)F)c2)CN(S(=O)(=O)c2ccc(C(F)(F)F)cc2)CC1=Cc1cccc(C(F)(F)F)c1 : ____
7.19 µM

* * *

Can you tell me IC50 for the items I'm about to list?
Tested on: LO2
Assay Name: Modified MTT cytotoxicity assay, normal heptical cell line LO2
Format: cell-based, human
Experimental Setup: 24 h incubation
Answers are plain numbers, in µM.

Illustrative cases are given below, each with its answer.
> print(dat)
                              smiles.string  unit.info  numeric.result
1  O=C1/C(=C/c2ccc(C(F)(F)F)cc2)CN(S(=O)(=O)c2ccc(F)cc2)C/C1=C\c1ccc(C(F)(F)F)cc1         µM            15.7
2  O=C1/C(=C/c2ccccc2C(F)(F)F)CN(S(=O)(=O)c2ccc(C(F)(F)F)cc2)C/C1=C\c1ccccc1C(F)(F)F         µM            17.2
3  CC(=O)Nc1ccc(S(=O)(=O)N2C/C(=C\c3ccc(C(F)(F)F)cc3)C(=O)/C(=C/c3ccc(C(F)(F)F)cc3)C2)cc1         µM            14.2
4  O=C1/C(=C/c2ccccc2C(F)(F)F)CN(S(=O)(=O)c2ccccc2)C/C1=C\c1ccccc1C(F)(F)F         µM            16.4
5  CC(=O)Nc1ccc(S(=O)(=O)N2C/C(=C\c3ccccc3C(F)(F)F)C(=O)/C(=C/c3ccccc3C(F)(F)F)C2)cc1         µM            15.6
6  O=C1/C(=C/c2ccc(C(F)(F)F)cc2)CN(S(=O)(=O)c2ccc(C(F)(F)F)cc2)C/C1=C\c1ccc(C(F)(F)F)cc1         µM            18.3
7  Cc1ccc(S(=O)(=O)N2C/C(=C\c3ccc(C(F)(F)F)cc3)C(=O)/C(=C/c3ccc(C(F)(F)F)cc3)C2)cc1         µM            13.1
8  CC(=O)Nc1ccc(S(=O)(=O)N2C/C(=C\c3cccc(C(F)(F)F)c3)C(=O)/C(=C/c3cccc(C(F)(F)F)c3)C2)cc1         µM            14.4

Hey, can you go through the list below and give me IC50 for every item?
1. N#Cc1ccc(S(=O)(=O)N2C/C(=C\c3ccc(C(F)(F)F)cc3)C(=O)/C(=C/c3ccc(C(F)(F)F)cc3)C2)cc1
2. O=C1/C(=C/c2ccc(C(F)(F)F)cc2)CN(S(=O)(=O)c2ccc([N+](=O)[O-])cc2)C/C1=C\c1ccc(C(F)(F)F)cc1

1: 21.5; 2: 14.4

Every entry's value here was drawn from paper PMC8297402.
